Catalogue of viability at 28.5 h, 10 µM values
Test: in vitro
Conditions: human, hela cells, % viability
Give just the number in %; leave the unit off.

INSERT INTO measurements (compound, metric, measurement) VALUES
  ('CC(C)NC(=O)c1cc(C2CCN(C(=O)CCOc3ccccc3F)C2)nc2ccccc12 (stereo not drawn)', 'viability at 28.5 h, 10 µM', 101),
  ('CCN(CCC(C)Sc1ccccc1)c1cncc(Oc2ccc(S(C)(=O)=O)cc2)n1 (stereo not drawn) [CBK137186T]', 'viability at 28.5 h, 10 µM', 96.5),
  ('Cc1ccc(-n2c(SCC(=O)NCc3ccccc3)nnc2-c2ccccc2O)c(C)c1', 'viability at 28.5 h, 10 µM', 91.5),
  ('CN(CC1CCCC1)c1nccc(N2CCN[C@H]3CS(=O)(=O)C[C@H]32)n1', 'viability at 28.5 h, 10 µM', 83.9),
  ('CCCCCn1c(=O)c(-c2nc3ccccc3c(=O)[nH]2)c(O)c2ccccc21', 'viability at 28.5 h, 10 µM', 110),
  ('Cc1ccc(S(=O)(=O)N(CC(=O)NC2CC3CCC2C3)c2cc(Cl)cc(Cl)c2)cc1 (stereo not drawn)', 'viability at 28.5 h, 10 µM', 85.3),
  ('Clc1ccc(CN2CCN(c3nccnc3OCC3COc4ccccc4O3)CC2)cc1 (stereo not drawn) [CBK082786T]', 'viability at 28.5 h, 10 µM', 101),
  ('COc1ccc(Cl)cc1N1CCN(C/C=C/c2ccccc2)CC1', 'viability at 28.5 h, 10 µM', 90.3);

Task: For `Cn1cc(CNC(=O)Nc2cc(C(=O)N3CCOCC3)ccc2Cl)cn1` , write its viability at 28.5 h, 10 µM.
Result: 83.4

Task: For `O=c1cc(O)c2c(=O)[nH]c(=O)n(-c3ccccc3)c2[nH]1` , write its viability at 28.5 h, 10 µM.
Result: 88.2

Task: For `CCCCC(=O)NC1CCN(C(=O)c2cccc(C#N)c2)CC1` , write its viability at 28.5 h, 10 µM.
Result: 83.4

Task: For O=C(NN=Cc1ccc(O)cc1)c1cc[n+](Cc2ccccc2)cc1 [CBK262047C] , write its viability at 28.5 h, 10 µM.
Result: 87.3

Task: For O=C1COc2ccccc2C/C=C/CC2(CCCN(C(=O)CN3CCCC3=O)C2)CN1 (stereo not drawn) , write its viability at 28.5 h, 10 µM.
Result: 98.1

Task: For `Nc1nccc2c1ncn2[C@H]1C[C@@H](O)[C@@H](CO)O1` , write its viability at 28.5 h, 10 µM.
Result: 97.1

Task: For `O=C1CCC(=O)N1CCOc1nccnc1N1CCN(CCc2ccccc2)CC1` , write its viability at 28.5 h, 10 µM.
Result: 99.4

* * *

Assay: in vitro
Details: human, hela cells, % viability
Metric: viability at 28.5 h, 10 µM (%)
Give just the number in %; leave the unit off.

These recorded examples may help you get a feel for the data.
INSERT INTO assay_data (compound, unit_of_measure, measurement) VALUES
  ('CCOc1cc(/C=C2\SC(=N)NC2=O)cc(Cl)c1O', '%', 84.4),
  ('O=C(NCCO)Nc1ccc2nccnc2c1', '%', 71.5),
  ('Cc1c(F)cccc1CN(CC(C)(C)CN)C(=O)Nc1ccc2c(c1)OCO2 [CBK002486C]', '%', 87.9),
  ('Cc1ccc(NC(=O)c2cncc(-c3ccc(C(=O)N4CCOCC4)cc3)c2)c(O)c1', '%', 84.3),
  ('CCOc1ccsc1C(=O)N1CCc2ccccc21', '%', 100);

Task: For `Cc1cc(/C=C2/NC(=S)NC2=O)c(C)n1-c1ccc(Sc2ccc([N+](=O)[O-])cc2)cc1` , write its viability at 28.5 h, 10 µM.
Result: 109

Task: For `COc1ccc(/C=C2\SC(Nc3ccc(Cl)c(C(=O)O)c3)=NC2=O)cc1C` , write its viability at 28.5 h, 10 µM.
Result: 99.1

Task: For O=C(c1ncc(F)cc1F)N1CCCCC1CN1CCOCC1 (stereo not drawn) , write its viability at 28.5 h, 10 µM.
Result: 102

Task: For `O=C(O)c1ccc(Cl)c(-c2ccc(/C=N/Nc3ccc([N+](=O)[O-])cc3)o2)c1` , write its viability at 28.5 h, 10 µM.
Result: 97.8

* * *

Assay: in vitro
Details: human, hela cells, % viability
Sorting guide: entries reporting viability at 28.5 h, 10 µM beneath 90% go in the t pile, the rest go in the f pile.

// known answers, use as guide
INSERT INTO assay_data (molecule, category) VALUES
  ('Nc1nnc2c(C(F)(F)F)nc3ccccc3n12 [CBK021345]', 't'),
  ('COC(=O)NC(=O)N1CCN(c2c(Cl)cncc2Cl)CC1 [CBK043398]', 'f'),
  ('CS(=O)(=O)N1CCc2cc(-c3cc4ccccn4c3)ccc21 [CBK285256]', 'f'),
  ('COc1ccc(C(=O)COc2nc3c(C(F)(F)F)cc(C4CC4)nc3o2)cc1 [CBK269498]', 't'),
  ('O=C(Nc1ccccn1)Nc1ccccn1 [CBK015518]', 'f');

Task: Quick check: viability at 28.5 h, 10 µM of Cc1cc(OCCCC(=O)Nc2cccc([N+](=O)[O-])c2)cc(C)c1Cl [CBK267978] under 90%?
Result: f

Task: Quick check: viability at 28.5 h, 10 µM of O=[N+]([O-])c1c(-c2cn[nH]c2)n[nH]c1-c1cn[nH]c1 [CBK008388] under 90%?
Result: t

Task: Quick check: viability at 28.5 h, 10 µM of COc1ccc(-c2cc(Nc3ccc(OC)cc3OC)ncn2)cc1 [CBK090763] under 90%?
Result: t

Task: Quick check: viability at 28.5 h, 10 µM of O=C(O)CCC(=O)Nc1ccc(Br)cc1C(=O)c1ccc(Cl)cc1 [CBK262601] under 90%?
Result: t

Task: Quick check: viability at 28.5 h, 10 µM of CCN(CC)c1ccc(NC(=O)N2CCN(Cc3ccccc3)CC2)cc1 [CBK155645] under 90%?
Result: f

Task: Quick check: viability at 28.5 h, 10 µM of CN(CCN1CCCCC1)C(=O)c1cc2ccc(N(C)C)cc2[nH]1 [CBK281830] under 90%?
Result: f

Task: Quick check: viability at 28.5 h, 10 µM of CC(C)(C)N=C1c2nn(Cc3ccccc3)nc2C(=NC(C)(C)C)c2nn(Cc3ccccc3)nc21 [CBK261070] under 90%?
Result: f

Task: Quick check: viability at 28.5 h, 10 µM of CC(C)=NNC(=O)CN(c1ccc(C)cc1)S(=O)(=O)c1ccccc1 [CBK262280] under 90%?
Result: f

Task: Quick check: viability at 28.5 h, 10 µM of O=C(NC1CC1)c1ccc(-c2cnc3[nH]c(=O)n(-c4ccc5[nH]ccc5c4)c3n2)cc1 [CBK064916] under 90%?
Result: f

* * *

Experiment: in vitro
Details: human, hela cells, % viability
Metric: viability at 28.5 h, 10 µM (%)
Give just the number in %; leave the unit off.

These recorded examples may help you get a feel for the data.
INSERT INTO results (compound, metric, measurement) VALUES
  ('COc1ccccc1N1C(=O)[C@H]2N=C(C(=O)c3cnccn3)N[C@H]2C1=O', 'viability at 28.5 h, 10 µM', 90.3),
  ('CCCn1c(SCC(=O)Nc2cc(C(C)(C)C)no2)n[nH]c1=O', 'viability at 28.5 h, 10 µM', 104),
  ('CCCCNC(=O)NS(N)(=O)=O', 'viability at 28.5 h, 10 µM', 109),
  ('CC(C)S(=O)(=O)N1CCC(n2c(=O)[nH]c3ccccc32)CC1', 'viability at 28.5 h, 10 µM', 101),
  ('CC(C)(C)OC(=O)NCCNCc1ccccc1Br', 'viability at 28.5 h, 10 µM', 92.1),
  ('COc1ccccc1CNc1nccc(-n2ccc(C)n2)n1', 'viability at 28.5 h, 10 µM', 111),
  ('O=C(CSc1nc(-c2ccccc2)cc(-c2ccccc2)n1)Nc1cccc([N+](=O)[O-])c1', 'viability at 28.5 h, 10 µM', 97.9),
  ('Cc1ccc2nc(-c3ccc(/N=C/c4cccc(O)c4O)cc3)sc2c1', 'viability at 28.5 h, 10 µM', 96);

Task: For `N#Cc1cc(F)cc(F)c1NC(=O)c1cccs1` , write its viability at 28.5 h, 10 µM.
Result: 90.2

Task: For O=C(O)CC1COCCN1Cc1ccc(Cn2cccn2)cc1 (stereo not shown) , write its viability at 28.5 h, 10 µM.
Result: 89.1
